- Measurement target: TR66 antibody (CD3ε specific antibody, clone TR66)
- Protocol notes: Binding analysis using peptide ELISA, biotinylated peptides on streptavidin plates, TR66
- Test conditions: TR66; mean of at least two individual measurements; two-site saturation binding model; read-out: Apparent KD, ELISA
Positions of bridges follow the written chain, without caps; N, C: chain ends. Residues, ends and D or L forms follow the SMILES beside them. *: point of attachment. Biotin = O=C1N[C@H]2[C@H](CS[C@H]2CCCCC(=O)*)N1
Catalogue of Kd values
Kindly report the value followed by its unit.

- Molecule: "C[C@H](N)C(=O)N[C@H]1CSSC[C@@H](C(=O)NCC(=O)NCC(=O)NCC(=O)N[C@@H](CO)C(=O)N[C@@H](CCCCNC(=O)CCCC[C@@H]2SC[C@@H]3NC(=O)N[C@@H]32)C(=O)O)NC(=O)[C@H](CCC(N)=O)NC(=O)[C@@H]2CCCN2C(=O)[C@H](CC(=O)O)NC(=O)[C@H](CC(=O)O)NC(=O)[C@@H]2CCCN2C(=O)[C@H](CCCNC(=N)N)NC(=O)[C@H]([C@@H](C)O)NC1=O [aCD3-04-002, ACTRPDDPQC-GGGS-K(Bio)] (H-ACTRPDDPQCGGGSK(Biotin)-OH; disulfide 2-10)"
  Kd: "0.078 µM"

Field: next molecule
So what Kd did C[C@@H](O)[C@@H]1NC(=O)[C@@H](NC(=O)[C@@H](N)Cc2c[nH]c3ccccc23)CSSC[C@@H](C(=O)NCC(=O)NCC(=O)NCC(=O)N[C@@H](CO)C(=O)N[C@@H](CCCCNC(=O)CCCC[C@@H]2SC[C@@H]3NC(=O)N[C@@H]32)C(=O)O)NC(=O)[C@H](CCC(N)=O)NC(=O)[C@@H]2CCCN2C(=O)[C@H](CC(=O)O)NC(=O)CNC(=O)[C@@H]2CCCN2C(=O)[C@H](CCCNC(=N)N)NC1=O [aCD3-04-006, WCTRPGDPQC-GGGS-K(Bio)] (H-WCTRPGDPQCGGGSK(Biotin)-OH; disulfide 2-10) get with TR66 antibody (CD3ε specific antibody, clone TR66)?
0.226 µM
